assay: gradient 5% acetonitrile 3 min, to 50% in 2 min, to 85% in 15 min, held 3 min, 100 µL/min; settings: column: Zorbax Extend-C18 2.1 x 50 mm; eluents: water / acetonitrile, 0.1% formic acid
ATTRIBUTE_MEASURED: RP-LC retention time

- Cc1ccc(N2CCN(S(=O)(=O)c3cc4n(c3)CCCNC4=O)CC2)cc1: 743 s
- CC(C)n1c(=O)c(NCc2ccccc2Br)nc2ccncc21: 699 s
- CN(CCc1noc(-c2ccccc2Cl)n1)C(=O)COc1ccccc1: 900 s
- CCOc1cccc(-c2noc(Cn3nc(-c4cccc(OC)c4)ccc3=O)n2)c1: 1090 s
- COc1cccc(-c2nc(Cn3ccnc3)no2)c1: 601 s
- CCc1ccc(C2=Nc3cccnc3N(CC(=O)Nc3ccc(C(C)=O)cc3)C(=O)C2)cc1: 972 s
- NC(=O)c1ccc2c(c1)n(Cc1ccccc1)c(=O)c1ccnn12: 674 s
- COc1cc(NC(=O)Nc2nccn(-c3cc(C)cc(C)c3)c2=O)cc(OC)c1: 913 s

Batch lookup, RP-LC retention time per entry.
1. CCOC(=O)c1ccc(NC(=O)Cn2cnc3ccccc32)cc1
2. Cn1c(C2CCN(C(=O)c3ccsc3)C2)nc2cccnc21 (stereo not given)

RESULT:
1: 594 s; 2: 606 s

Below are 5 compounds. Give each one its RP-LC retention time.
1. CCOCCOC1CCN(C(=O)c2ccco2)CC1
2. Cc1ccc2c(C(=O)NCc3ccc(F)cc3F)cc(NC(=O)C(C)C)cc2n1
3. COc1ccc(NC(=O)N2CCN(c3ccc(=O)n(-c4ccc(C)c(C)c4)n3)CC2)cc1OC
4. Cc1noc(C)c1S(=O)(=O)NCC1CCN(C(=O)Nc2ccc(F)cc2)CC1
5. O=c1ccc(S(=O)(=O)N2CCOCC2)cn1Cc1ccc(F)cc1

RESULT:
["667 s", "660 s", "764 s", "742 s", "759 s"]

Hello, I would appreciate it if you could give RP-LC retention time for each entry below.
1. CCc1nc(-c2csc(S(=O)(=O)N3CCC(C(=O)N4CCCCCC4)CC3)c2)no1
2. COC(=O)c1ccc(CN2N=C(C(=O)N3CCC(C)CC3)S(=O)(=O)c3ccccc32)o1

RESULT:
1: 955 s; 2: 891 s

// for each compound below, give its RP-LC retention time
1. Cc1cc(C(F)(F)F)nn1CC(=O)NCCn1c(C)cnc1C1CCC1
2. O=C(CN1C(=O)CCS(=O)(=O)c2ccccc21)Nc1ccccc1C(F)(F)F
3. CCc1nccn1Cc1noc(-c2ccccc2)n1

RESULT:
1. 634 s
2. 746 s
3. 634 s

====

test: gradient 5% acetonitrile 3 min, to 50% in 2 min, to 85% in 15 min, held 3 min, 100 µL/min; conditions: column: Zorbax Extend-C18 2.1 x 50 mm; eluents: water / acetonitrile, 0.1% formic acid
true if RP-LC retention time is below 700 s. false if not; exact matches included in false.

Consider the worked cases shown below.
* O=C1NC(=S)S/C1=C\c1ccccc1C(=O)O | false
* COC(=O)C(C)Sc1nc2c(c(=O)n1-c1ccc(OC(F)(F)F)cc1)SCC2 (centres undefined) | false
* CC(C(=O)NCc1ccco1)C1CCN(C(=O)c2cc3ccccc3[nH]2)CC1 (centres undefined) | false
* CCOC(=O)Cc1csc(NC(=O)c2ccc(-c3nc4ccccc4s3)s2)n1 | false
* Cc1ccc(S(=O)(=O)NCc2c(-c3ccccc3)nc3sc(C)nn23)c(C)c1 | false
* O=C(c1ccc2c(c1)OCO2)N1CCN(c2nc(CN3CCOCC3)cs2)CC1 | true

QUERY: RP-LC retention time under 700 s? Item: CCC1Oc2ccc(S(=O)(=O)N3CCC(C(=O)Nc4cccc(C)c4C)CC3)cc2NC1=O (centres undefined)
RESULT: false

QUERY: Repeat for the following molecule: O=C(Nc1nnc(C2CC(=O)N(c3ccc(F)cc3)C2)o1)c1ccc(Cl)cc1 (centres undefined)
RESULT: false

QUERY: How about this molecule: CC1=C(c2ccc(F)cc2)S(=O)(=O)N=C1N1CCCN(C(=O)Nc2ccccc2)CC1
RESULT: false

QUERY: And for COc1ccc(-c2nc(C)cc(C)c2CNS(=O)(=O)c2cccc(OC)c2)cc1 ?
RESULT: true

QUERY: Next molecule up: COCCCNC(=O)Cn1ccc2c(SCc3ccc(C)cc3)nccc21
RESULT: true

QUERY: Next record, please: N#Cc1ccc(C(=O)N2CCCCC2c2nncn2CC2CC2)cc1 (centres undefined)
RESULT: true

QUERY: Same read-out for O=C(c1cccc(Br)c1)N1CCc2nc(-c3ccc(F)cc3)ncc2C1 ?
RESULT: false

QUERY: Moving on to the next molecule: COc1ccc(C)cc1NC(=O)c1cc(C)n2nc(C)cc2n1
RESULT: false

QUERY: Another molecule to check: O=S(=O)(c1cccc(Cl)c1)N1CCC(c2noc(-c3ccccc3)n2)CC1
RESULT: false

QUERY: # iterate: CCN1CCn2cc(S(=O)(=O)Nc3cccc(C)c3C)cc2C1=O
RESULT: false

QUERY: For NC(=O)C1CCN(C(=O)c2nnn(-c3ccccc3Cl)c2-c2ccncc2)CC1 then?
RESULT: true

QUERY: Lookup CCn1c(=O)c(C)nc2cc(-c3noc(-c4ccc5c(c4)OCO5)n3)ccc21
RESULT: false

====

experiment: gradient 5% acetonitrile 3 min, to 50% in 2 min, to 85% in 15 min, held 3 min, 100 µL/min; conditions: column: Zorbax Extend-C18 2.1 x 50 mm; eluents: water / acetonitrile, 0.1% formic acid
RP-LC retention time vs 800 s: at or above is rule met, below is rule not met.

* O=C(CSc1ncnc2c1[nH]c1ccccc12)N1CCc2ccccc2C1 | rule met
* Cc1ccc(-c2cc3c(N4CCC(C(=O)NC(C)C)CC4)nccn3n2)c(C)c1 | rule not met
* Cc1ccc(NC(=O)C2CCN(S(=O)(=O)c3cn(C)cn3)CC2)cc1C | rule not met
* O=C(Cn1nc2ccc(C(=O)NCc3ccccc3)cn2c1=O)NC1CCCC1 | rule not met
* CCn1c(=O)oc2cc(S(=O)(=O)N3CCN(C(=O)C4(c5ccccc5)CC4)CC3)ccc21 | rule met

QUERY: Confirm if RP-LC retention time reported for the molecule CCOc1ccccc1-c1nc(C2CC(=O)N(c3ccc(CC)cc3)C2)no1 (centres undefined) is 800 s or above.
RESULT: rule met

QUERY: Try the molecule Cc1cc(C(=O)N2CCN(CCNC(=O)c3ccsc3)CC2)c(C)o1
RESULT: rule not met

QUERY: Next: O=C(NCCc1c[nH]c2ccccc12)c1ccc(N2CCCC2)c(S(=O)(=O)N2CCCC2)c1
RESULT: rule met

====

experiment: gradient 5% acetonitrile 3 min, to 50% in 2 min, to 85% in 15 min, held 3 min, 100 µL/min; details: column: Zorbax Extend-C18 2.1 x 50 mm; eluents: water / acetonitrile, 0.1% formic acid
Given measured RP-LC retention time, output 1 (yes) if it is greater than or equal to 800 s and 0 (no) if not.

• CC(C)CCNC(=O)NCCC1CCN(S(=O)(=O)c2ccc(F)cc2)CC1 = 1 (yes)
• CCOC(=O)c1cccc(NC(=O)NC2CCN(c3ccccc3)C2=O)c1 (centres undefined) = 0 (no)
• CCc1ccc(N2C(=O)c3c(C(=O)OC)ncn3CC2(C)C(=O)NC2CCCC2)cc1 (centres undefined) = 0 (no)
• CCC(CC)C(=O)NCCc1c[nH]c2ccc(C)cc12 = 1 (yes)
• Cc1ccc(-c2ncccc2CNS(=O)(=O)c2cccc(Cl)c2)cc1 = 0 (no)

QUERY: Given Fc1cccc(-c2nn3c(CSc4ccccc4)nnc3s2)c1 , state whether its RP-LC retention time is at least 800 s.
RESULT: 1 (yes)

QUERY: How about Cc1cc(=O)n2nc(N3CCCC(C(=O)N4CCC(Cc5ccccc5)CC4)C3)sc2n1 (centres undefined) ?
RESULT: 0 (no)

====

assay: gradient 5% acetonitrile 3 min, to 50% in 2 min, to 85% in 15 min, held 3 min, 100 µL/min; settings: column: Zorbax Extend-C18 2.1 x 50 mm; eluents: water / acetonitrile, 0.1% formic acid
Threshold 800 s. RP-LC retention time below it: MET. RP-LC retention time at it or above: NOT MET.

Take a look at these entries with their results.
- O=C1N(c2cccc(F)c2)C(c2ccccc2)C12CCN(Cc1cccc(F)c1O)CC2 (centres undefined): MET
- O=C(Nc1ccccc1F)C1CCCN(S(=O)(=O)c2c[nH]c(C(=O)N3CCCC3)c2)C1 (centres undefined): MET
- CCn1c(=O)c(N2CCN(C(=O)Nc3cc(C)cc(C)c3)CC2)nc2ccccc21: NOT MET
- CCNC(=O)C1CCN(c2nc3ncn(CC(=O)Nc4ccc(OCC)cc4)c(=O)c3s2)CC1: MET
- O=C(COc1ccc(Cl)cc1Cl)N1CCN(c2ccc3nncn3n2)CC1: MET

QUERY: Say whether its RP-LC retention time is strictly beneath 800 s. Entry: Cc1ccc(-c2nc3cnccn3c2Nc2cccc(C)c2C)cc1
RESULT: NOT MET

QUERY: Likewise for Cc1ccc(CNC(=O)Cn2cccc2-c2nnc(C3CCC3)o2)cc1 ?
RESULT: NOT MET

QUERY: // repeat for Fc1ccc(-c2noc(-c3nc(-c4ccncc4)no3)n2)cc1F and report
RESULT: NOT MET
